Cited source: paper PMC5805805

measurement-protocol: clinical
measurement-parameters: human, in vivo, 500 mg

{"mol": "CN(C)C(=N)N=C(N)N", "AUC": "8320 ng·h/mL"}

====

measurement-protocol: Everolimus pharmacokinetics in whole blood (HPLC-MS/MS), single-agent and combined with metformin
Assay type: in vivo, human
measurement-parameters: human, whole blood, oral, everolimus 5 mg qd, in combination with metformin, n = 2; read-out: AUC
assay-endpoint: AUC (ng·h/mL)

{"mol": "CO[C@H]1C[C@@H]2CC[C@@H](C)[C@@](O)(O2)C(=O)C(=O)N2CCCC[C@H]2C(=O)O[C@H]([C@H](C)C[C@@H]2CC[C@@H](OCCO)[C@H](OC)C2)CC(=O)[C@H](C)/C=C(\\C)[C@@H](O)[C@@H](OC)C(=O)[C@H](C)C[C@H](C)/C=C/C=C/C=C/1C", "quantitative-result": 254}
